Measured values drawn from PubChem BioAssay AID1159580 for this set.

Assay: chemical genetic growth profiling, strain panel (AID 1159580);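 also: tested at 20 µM; growth read once vehicle control cultures reached saturation at 30 °C; 1 = growth at the plate median or of vehicle wells; lower values mean less growth of the strain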
Conditions: S. cerevisiae deletion strains, growth OD, locus YKL067W, strain YNK1, hits give low values
Hit rate of the full screen: of about 5,500 compounds, about 2,000 (36%) were called active. Another 18% or so got no clear call; they are omitted. Some of the results follow.
This listing pairs molecules with measured normalized growth.
I only need the number, thanks.

The molecule listed as O=C(NNC(=S)Nc1ccc(Cl)cc1)c1ncc(C(F)(F)F)cc1Cl has a reported normalized growth of 0.95

CN1c2ccccc2C(C)(C)C12C=Cc1cc(O)ccc1O2 (centres undefined) has a reported normalized growth of 0.975

Entry FC(F)(F)c1cc(-c2ccc(Cl)cc2)n[nH]1 ; normalized growth = 0.84

# molecule S=C(N/N=C\c1cccs1)NC1CC2CCC1C2 (centres undefined) ; its normalized growth = 0.95

Reported normalized growth ( CC(C)(C)c1ccc(C(=O)NNC(=S)Nc2ccc(Cl)cc2)cc1 ) = 0.909

Further cases:
GET /value?item= N#C/C(=N/Nc1cccc(C(F)(F)F)c1)C(=O)c1csc(-c2cccnc2)n1 &field=normalized growth returns 0.854
